Provide the reported IC50 of each item.
Target: Murine PKD1 kinase domain (Mus musculus)
Construct: hexahistidine (pFastBac HTb leader) (N)
Sequence (Q62101 with tags, fused parts or gaps R683W): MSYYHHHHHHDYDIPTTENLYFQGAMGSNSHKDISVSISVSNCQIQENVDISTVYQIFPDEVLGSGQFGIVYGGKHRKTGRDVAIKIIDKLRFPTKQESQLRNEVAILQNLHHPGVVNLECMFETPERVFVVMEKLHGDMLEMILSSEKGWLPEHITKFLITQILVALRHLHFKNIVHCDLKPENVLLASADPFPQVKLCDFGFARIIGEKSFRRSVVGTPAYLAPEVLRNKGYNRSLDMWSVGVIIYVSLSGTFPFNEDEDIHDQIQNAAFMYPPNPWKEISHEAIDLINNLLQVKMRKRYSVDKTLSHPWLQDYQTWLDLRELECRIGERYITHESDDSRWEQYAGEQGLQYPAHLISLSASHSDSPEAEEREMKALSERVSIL
Assay: PKD1 (Murine Kinase Domain) Enzyme Activity Assay (IMAP fluorescence polarisation)
Details: 10 μM ATP, 60 minutes, room temperature

Please give measured IC50 of the following entry: CC(=O)Nc1cccc(-c2cncc(-c3cccc(C(=O)NCCCN(C)C)c3)n2)c1 [X-006]
< 1000 nM

Recall and state the measured IC50 for CN(C)CCNC(=O)c1cccc(-c2cnc(N)c(-c3ccc(C(F)(F)F)cc3)c2)c1 [Y-069] .
< 1000 nM

// fetch IC50 given entry CN(C)CCNC(=O)c1cccc(-c2cnc(N)c(-c3cccc(O)c3)c2)c1 [Y-077]
< 1000 nM

Let me know recorded IC50 for CC(C)Oc1cccc(-c2cc(-c3cccc(C(=O)NCCN(C)C)c3)cnc2N)c1 [Y-046] , thanks.
1000 to 10000 nM

Given CN(C)CCNC(=O)c1cccc(-c2cnc(N)c(-c3ccc4[nH]ncc4c3)c2)c1 [Y-094] , respond with its IC50.
< 1000 nM

Supply measured IC50 of COc1cc(-c2cc(-c3cccc(C(=O)NCCN(C)C)c3)cnc2N)ccc1F [Y-056] in your reply.
< 1000 nM

Give IC50 for the following molecule: COc1ccc(-c2cc(-c3cccc(C(=O)NCCN(C)C)c3)cnc2N)cn1 [Y-008]
1000 to 10000 nM

Look up and report measured IC50 for this entry: COc1cc(-c2nc(-c3cccc(C(=O)NCCN(C)C)c3)cnc2N)ccn1 [X-024]
< 1000 nM

Please report IC50 for the following molecule: CC(C)Cc1ccc(-c2cc(-c3cccc(C(=O)NCCN(C)C)c3)cnc2N)cc1 [Y-062]
< 1000 nM

* * *

Target: Murine PKD1 kinase domain (Mus musculus)
Construct: hexahistidine (pFastBac HTb leader) (N)
Assay: PKD1 (Murine Kinase Domain) Enzyme Activity Assay (IMAP fluorescence polarisation)
Details: 10 μM ATP, 60 minutes, room temperature
pIC50: −log10 of the molar value.
quantity.kind: pIC50

Give pIC50 for CN(C)CCNC(=O)c1cccc(-c2cnc(N)c(-c3ccc(Cl)nc3)c2)c1 tested on Murine PKD1 kinase domain (Mus musculus).
5.00 to 6.00

Fetch value of pIC50 on Murine PKD1 kinase domain (Mus musculus) for COc1ccccc1-c1cc(-c2cccc(C(=O)N3CCN(C)CC3)c2)cnc1N .
5.00 to 6.00

Report value only: pIC50, Murine PKD1 kinase domain (Mus musculus), NC(=O)c1cccc(-c2cnc(N)c(-c3ccoc3)c2)c1
> 6.00

Give measured pIC50 for CN(C)CCNC(=O)c1cccc(-c2cnc(N)c(-c3ccc(-c4ccccc4)cc3F)c2)c1 (Murine PKD1 kinase domain (Mus musculus)).
> 6.00

Provide pIC50, recorded with Murine PKD1 kinase domain (Mus musculus), of CCN(CC)CCNC(=O)c1cccc(-c2cnc(N)c(-c3cccc(OC)c3)n2)c1
> 6.00

* * *

Target: Murine PKD1 kinase domain (Mus musculus)
Construct: hexahistidine (pFastBac HTb leader) (N)
Assay: PKD1 (Murine Kinase Domain) Enzyme Activity Assay (IMAP fluorescence polarisation)
Details: 10 μM ATP, 60 minutes, room temperature
Exercise: for every item that follows, state its recorded IC50.

Give IC50 for COc1ccc2cc(-c3nc(-c4cccc(C(=O)NCCN(C)C)c4)cnc3N)ccc2c1
< 1 µM

Respond only with IC50 recorded for CN(C)CCNC(=O)c1cccc(-c2cnc(N)c(-c3cccc(-c4ccccc4)c3)c2)c1
< 1 µM

Given the molecule COc1cc(F)ccc1-c1cc(-c2cccc(C(=O)NCCN(C)C)c2)cnc1N , write its reported IC50.
1 to 10 µM

Quickly give me recorded IC50 for COc1cc(-c2cncc(-c3cccc(C(=O)NCCN)c3)n2)ccc1O
< 1 µM

Query IC50 for COc1cc(-c2cncc(-c3cccc(C(=O)NC4CCN(C)CC4)c3)n2)ccc1O
< 1 µM

State its IC50 for this molecule: NC(=O)c1cccc(-c2cnc(N)c(-c3ccc4[nH]ccc4c3)c2)c1
< 1 µM

Supply IC50 value. Item: CN(C)CCNC(=O)c1cccc(-c2cnc(N)c(-c3ccnc(Cl)c3)c2)c1
< 1 µM

// fetch IC50 given entry CN(C)CCNC(=O)c1cccc(-c2cnc(N)c(-c3ccc4cc(O)ccc4c3)c2)c1
< 1 µM

Consider the molecule Cc1ccc(-c2cc(-c3cccc(C(=O)NCCN(C)C)c3)cnc2N)cc1C and give its recorded IC50.
< 1 µM

Using known records, supply IC50 for CN(C)CCNC(=O)c1cccc(-c2cnc(N)c(-c3ccc(CO)cc3)c2)c1
< 1 µM

Tell me measured IC50 for CN(C)CCNC(=O)c1cccc(-c2cnc(N)c(-c3cccc4ncccc34)c2)c1 please.
< 1 µM

Using known records, supply IC50 for CN(C)CCNC(=O)c1cccc(-c2cnc(N)c(-c3cccc(CC#N)c3)c2)c1
< 1 µM

Report IC50, nothing else, for this molecule: COc1cc(-c2cc(-c3cccc(C(=O)N4CCN(C)CC4)c3)cnc2N)ccc1O
1 to 10 µM

Please list IC50 recorded for the molecule COc1ccc(-c2cc(-c3cccc(C(N)=O)c3)cnc2N)cc1OC
1 to 10 µM

Dear colleague, please send me the reported IC50 for CN(C)CCNC(=O)c1cccc(-c2cnc(N)c(-c3ccc(-c4ccccc4)c(F)c3)c2)c1 when you can.
< 1 µM

Provide one value: measured IC50 of COc1ccccc1-c1cncc(-c2cccc(C(=O)NCCN(C)C)c2)n1
1 to 10 µM

Answer with reported IC50 of CN(C)CCNC(=O)c1cccc(-c2cnc(N)c(-c3ccc4ccccc4c3)c2)c1
< 1 µM

// fetch IC50 given entry COc1cc(-c2cncc(-c3cccc(C(=O)N4CCNCC4)c3)n2)ccc1O
1 to 10 µM

Give the measured IC50 for CN(C)CCNC(=O)c1cccc(-c2cnc(N)c(-c3ccc(OC4CCCCO4)cc3)c2)c1 (stereo not drawn)
< 1 µM

Give the measured IC50 for CC(=O)Nc1cccc(-c2cc(-c3cccc(C(=O)NCCN(C)C)c3)cnc2N)c1
< 1 µM

Quote IC50 reported for CN(C)CCNC(=O)c1cccc(-c2cnc(N)c(-c3ccnc(O)c3)c2)c1 please.
< 1 µM

Please supply the value of reported IC50 for the item COc1cc(-c2cncc(-c3cccc(C(=O)NCCN(C)C)c3)n2)ccc1O
< 1 µM

For the molecule CN(C)CCNC(=O)c1cccc(-c2cnc(N)c(-c3ccc(Cl)c(F)c3)c2)c1 , give its measured IC50 value.
< 1 µM

Check the records and state IC50 for CN(C)CCNC(=O)c1cccc(-c2cnc(N)c(-c3ccc(F)c(Cl)c3)c2)c1
< 1 µM

For CN1CCN(C(=O)c2cccc(-c3cnc(N)c(-c4cccc5c4oc4ccccc45)n3)c2)CC1 , write its IC50.
< 1 µM

Return IC50 (reported value) for this molecule: CN(C)CCNC(=O)c1cccc(-c2cnc(N)c(-c3ccc4c(c3)CCO4)c2)c1
< 1 µM

Tell me IC50 reported for CN(C)CCNC(=O)c1cccc(-c2cnc(N)c(-c3ccc(O)c(F)c3)c2)c1
< 1 µM

Tell us which IC50 value is on record for CN(C)CCNC(=O)c1cccc(-c2cnc(N)c(-c3cccc(OCc4ccccc4)c3)c2)c1
< 1 µM

For the molecule COc1cc(-c2cc(-c3cccc(C(=O)NCCN(C)C)c3)cnc2N)cc(OC)c1OC , report IC50.
< 1 µM

Entry CN(C)CCNC(=O)c1cccc(-c2cnc(N)c(-c3ccc(F)c(F)c3)c2)c1 needs its IC50 filled in; supply it.
< 1 µM

Note down IC50 recorded for CN(C)CCNC(=O)c1cccc(-c2cnc(N)c(-c3cncc4ccccc34)c2)c1
< 1 µM

Return reported IC50. Input molecule: CN(C)CCNC(=O)c1cccc(-c2cnc(N)c(-c3ccc4nccnc4c3)c2)c1
< 1 µM

// fetch IC50 given entry COc1cccc(-c2cc(-c3cccc(C(=O)NCCN(C)C)c3)cnc2N)c1
< 1 µM

Consider the molecule CN(C)CCCNC(=O)c1cccc(-c2cncc(-c3ccc(O)cc3)n2)c1 . State its measured IC50.
< 1 µM

Fill in IC50 for record COc1ccccc1-c1cc(-c2cccc(C(N)=O)c2)cnc1N
1 to 10 µM

Using known records, supply IC50 for CN(C)CCNC(=O)c1cccc(-c2cnc(N)c(-c3ccc(OCc4ccccc4)cc3)c2)c1
< 1 µM

# credit: patent US20110098325A1
